- test: NCI Yeast Anticancer Drug Screen. Data for the rad50EPP+ strain (AID 151);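 further: 0% = growth of vehicle-treated control cultures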
- experimental.parameters: S. cerevisiae rad50 mutant strain, at 1.2 µM, active compounds read high
The panel holds about 79,000 compounds, 15% with a hit somewhere; the sample as a whole holds those more often. Activity calls are given as the source filed them. No stated cut-off is given here; in the data, active means growth inhibition above about 70%; inactive means the rest.
Some compounds, each annotated with its measured growth inhibition.

[[record]]
compound = "CN(C)CCC(=O)c1c[nH]c2ccccc12"
value_reported = "-17% (inactive)"

[[record]]
compound = "Nc1ccc2ncc(Nc3ccc(Cl)c(Cl)c3)nc2c1"
value_reported = "-11% (inactive)"

[[record]]
compound = "CSc1ccc2c(c1)C(N1CCN(C)CC1)Cc1ccccc1S2 (configuration not stated)"
value_reported = "-27% (inactive)"

[[record]]
compound = "Clc1ccc(C(c2ccc(Cl)cc2)N2CCNCC2)cc1"
value_reported = "1% (inactive)"

[[record]]
compound = "CCCC#CCOC(=O)c1cc([N+](=O)[O-])cc([N+](=O)[O-])c1"
value_reported = "22% (inactive)"


// returns reported growth inhibition for input CC1=NN(C(=O)CC(=O)N(C(=O)c2ccccc2)c2ccc(Cl)cc2)C(=O)C1N=Nc1ccc([N+](=O)[O-])cc1 (configuration not stated) 6% (inactive)

I would be grateful if you could share the reported growth inhibition for O=C(CCC(=O)c1ccc(O)cc1)Oc1ccc(O)cc1 . 5% (inactive)

###

- test: NCI Yeast Anticancer Drug Screen. Data for the CLN2oe strain (AID 163);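 further: 0% = growth of vehicle-only control cultures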
- experimental.parameters: S. cerevisiae CLN2oe strain, at 3.7 µM, active compounds read high
- Protocol: Growth inhibition of yeast strains with defined genetic alterations is measured as a screen for potential anti-cancer activity. Selected strains with alterations in DNA damage repair or cell cycle control were exposed to compounds and growth inhibition was measured relative to vehicle treated controls. The strain used in this assay is CLN2oe
This is part of a sample that, as a whole, favours compounds with a hit. Of some 79,000 tested, about 15% had one in any assay.
Reported growth inhibition values for a set of molecules
Answer in %, number only, no unit symbol.

[[record]]
molecule = "O=C(CSS(=O)(=O)O)c1ccccc1"
value_reported = -14

[[record]]
molecule = "COc1cc(C(C)C(C(=O)O)C(=O)C(=O)O)cc(OC)c1OC (stereo not drawn)"
value_reported = 5


Recorded growth inhibition of c1ccc(C2=NNC3c4ccccc4-c4ccccc4N3C2)cc1 (stereo not drawn) , please. -5

Reported growth inhibition for COc1ccc(/C=C2\S/C(=N/Nc3nc(-c4ccccc4)cs3)NC2=O)cc1OC : what is it? 79

growth inhibition lookup needed for O=S(=O)(O)c1ccc2c(N=Nc3c(O)ccc4ccccc34)cccc2c1 , thanks. -4

What value of measured growth inhibition is listed for CCOC(=O)/C=C1\CCCn2c1ncc(C(=O)OCC)c2=O ? 4

Which growth inhibition value is on record for O=C(N/N=C/c1ccc2c(c1)CCC2)c1ccccc1[N+](=O)[O-] ? -5

Form field: reported growth inhibition of Cc1cc(NCCCN(C)C)c2ccc3c(ccc4c(NCCCN(C)C)cc(C)nc43)c2n1 -4

###

- test: NCI Yeast Anticancer Drug Screen. Data for the cln2 rad14 strain (AID 165);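 further: 0% = growth equal to vehicle treated cultures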
- experimental.parameters: S. cerevisiae cln2 rad14 strain, at 5.0 µM (retest, dose inferred, filed as 0.5), active compounds read high
Compounds without any hit were thinned out: in the full panel of roughly 79,000, 15% have a hit.
endpoint.name: growth inhibition (%)
Give a bare numeral; the unit % is implied.

[[record]]
compound = "CCOC(=O)C1=C(C)NC(C)=C(C(=O)OCC)C1c1cccc([N+](=O)[O-])c1"
value_reported = 45

[[record]]
compound = "CC1=NN(C(=O)CC(=O)N(C(=O)c2ccccc2)c2ccc(Cl)cc2)C(=O)C1N=Nc1ccc([N+](=O)[O-])cc1 (stereo not drawn)"
value_reported = 63


Kindly review the next compound as well.
Query: growth inhibition; subject: c1ccc(C2=NNC3c4ccccc4-c4ccccc4N3C2)cc1 (stereo not drawn) -122
